Target: UniProt P69332
Test: 125I-fractalkine radioligand binding to US28 on US28-NSO cells
Set-up: host or cells: mouse NSO cells (US28-NSO); species or system Cytomegalovirus (CMV)
Conditions: dose response against fractalkine on US28-NSO cells (FIG. 1); read-out: IC50, inhibition of fractalkine binding to US28
pIC50: −log10 of the molar value.
Test Readout: pIC50

1. CN1CCN(C2Cc3ccccc3Sc3ccc(Cl)cc32)CC1.O=C(O)/C=C\C(=O)O (stereo not shown) [octoclothepin maleate, octoclothepin]; 6.15

----------
Molecular target: US28 (Human cytomegalovirus, UniProt P69332)
Sequence (P69332 whole entry): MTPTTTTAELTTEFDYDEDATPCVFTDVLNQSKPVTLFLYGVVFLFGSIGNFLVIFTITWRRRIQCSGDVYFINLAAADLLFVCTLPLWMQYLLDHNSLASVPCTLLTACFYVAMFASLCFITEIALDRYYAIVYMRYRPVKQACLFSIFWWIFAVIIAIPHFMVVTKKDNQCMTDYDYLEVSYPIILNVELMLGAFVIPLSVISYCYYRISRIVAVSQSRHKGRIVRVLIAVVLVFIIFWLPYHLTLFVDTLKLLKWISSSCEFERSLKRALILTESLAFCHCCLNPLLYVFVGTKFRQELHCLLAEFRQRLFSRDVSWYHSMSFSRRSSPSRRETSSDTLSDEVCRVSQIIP
Assay: 125I-fractalkine radioligand binding to US28 on US28-NSO cells
Design: host or cells: mouse NSO cells (US28-NSO); species or system Cytomegalovirus (CMV)
Procedure: The US28 expressing cells used in most assays consist of a mouse cell line (NSO cells from ATCC) stably expressing transfected US28 cDNA under the control of a CMV promoter (from R & D Systems). These cells were cultured in IMDM-5% FBS, and harvested when the concentration was between 0.5-1.0×10^6 cells/mL. […] Scintillation fluid (35 μL) was added to all wells, the plates were sealed and counted in a Top Count scintillation counter. […]
Structures can show the parent of a compound that is named as a salt.
Test Readout: IC50 (µM)

1. CSc1ccc2c(c1)C(N1CCN(C)CC1)Cc1ccccc1S2 (stereo not shown) [methiothepin mesylate, methiothepin]; 0.3
